Data provenance is patent US20250179059A1.

Quick reference: GI50 of the listed items.
Test system: human SKM-1 acute myeloid leukemia cells
method_summary: SKM-1 antiproliferation cell-based assay (ATPlite)
assay_context: Homo sapiens, SKM-1, 96 h, SKM-1 antiproliferation assay, 4 days, Table C2
measurement_kind: GI50

{"compound_structure_string": "CC[C@@]1(O)CCN(c2cc(-c3cc(F)cc(-c4ccc(-n5ccn(C)c5=O)c(Cl)c4)c3O)ccn2)C1", "reported": "0.0003 to 0.03 µM"}
{"compound_structure_string": "C[C@@H]1CN(c2cc(-c3cc(F)cc(-c4ccc(-n5ccn(C)c5=O)c(Cl)c4)c3O)cc3[nH]nnc23)CCN1", "reported": "0.0003 to 0.03 µM"}
{"compound_structure_string": "O=C1CCC(=O)N1c1ccc(-c2cccc(-c3cncc(N4CCNCC4)c3)c2O)cc1F", "reported": "≥ 3 µM"}
{"compound_structure_string": "C[C@@H]1CN(c2cc(-c3cc(F)cc(-c4ccc(-n5ccn(C)c5=O)c(Cl)c4)c3O)cc3[nH]ncc23)C[C@H](C)N1", "reported": "0.0003 to 0.03 µM"}
